For each of the compounds below, state its composite z-score.
molecular target: Fibroblast growth factor 2 (Homo sapiens); experiment: basic fibroblast growth factor binding to printed compounds – biochemical, small-molecule microarray, 635/667 nm fluorescence, primary screen (AID 1133); conditions: FGF2, fluorescence 635/667, higher = more signal

The compound identified as COc1ccc([Si](C)(C)[C@@H]2[C@@H](CCn3cc(CCO)nn3)O[C@]3(C(=O)N(Cc4cccc(N5C(=O)c6cccc7cccc5c67)c4)c4ccccc43)[C@H]2C)cc1 registered its composite z-score at 0.672

The compound identified as COC(=O)[C@@]1(Cc2ccc(F)cc2)[C@H]2c3cc(C(=O)N(C)C)n(Cc4ccc(C)o4)c3C[C@H]2CN1C(=O)c1ccccc1 registered its composite z-score at -1.4

The compound identified as C#CCN(C/C=C/c1ccccc1)[C@H](CO)c1ccccc1 registered its composite z-score at 0.444

The compound identified as O=C1O[C@@H](c2ccccc2)[C@@H](c2ccccc2)N2[C@@H](c3ccccc3OCCO)[C@]3(C(=O)Nc4ccc(C#CC5(O)CCCCCC5)cc43)[C@@H](C(=O)N3CCN(c4ncccn4)CC3)[C@H]12 registered its composite z-score at 1.15

The compound identified as Cc1ccc([C@H]2C(C(=O)O)=CCN2S(=O)(=O)c2ccc(C)cc2)cc1 registered its composite z-score at -0.6

The compound identified as COc1ccc([Si](C)(C)[C@H]2[C@H](CC(=O)N3CCC[C@H]3CO)O[C@@]3(C(=O)N(Cc4cccc(N5CCOC5=O)c4)c4ccccc43)[C@@H]2C)cc1 registered its composite z-score at 1.64

The compound identified as [N-]=[N+]=Nc1ccccc1C[C@]1(C(=O)NCC(O)CO)N=C(c2ccc(OCCCO)cc2)O[C@H]1c1ccccc1 (stereo partly specified) registered its composite z-score at -0.839

The compound identified as COc1ccc([C@H]2C[C@H]3C(I)=C[C@@H]2C(=O)[C@]32CO2)cc1 registered its composite z-score at 1.14

The compound identified as O=C1NC(=O)C2C1C=CC(C(O)c1ccc(I)cc1)N2Nc1ccccn1 (stereo unspecified) registered its composite z-score at -0.109

The compound identified as CC(=CC1CCCCC1)[C@@H](NC(=O)c1cccnc1)c1ccc(-c2ccccc2)cc1 registered its composite z-score at -0.741

The compound identified as CS(=O)(=O)CCOC(=O)C1=CC(CCCO)=CC(c2ccc(CN3CCCC3)cc2)N(Cc2cccc(OC(F)(F)F)c2)C=C1C(=O)OCCS(C)(=O)=O (stereo unspecified) registered its composite z-score at 0.964

The compound identified as O=C(O)[C@@]1(CCS(=O)(=O)c2ccccc2)N=C(c2ccc(OCCCO)cc2)O[C@H]1c1ccccc1 registered its composite z-score at -0.761

The compound identified as CN(C)C(=O)[C@]1(Cc2ccccc2)N=C(c2ccc(OCCCO)cc2)O[C@@H]1c1ccccc1N=[N+]=[N-] registered its composite z-score at 1.63

The compound identified as COC(=O)[C@@]1(Cc2ccccc2)[C@H]2c3cc(C(=O)N4CCCC4)n(Cc4ccc(O)c(OC)c4)c3C[C@H]2CN1C(=O)c1ccccc1 registered its composite z-score at -0.638

The compound identified as CCCCN1CC=CC23O[C@@H]4C=CCOC(=O)[C@@H]4[C@H]2C(=O)N(CCCCCCO)[C@@H]3C1=O (stereo partly specified) registered its composite z-score at -0.802

The compound identified as CC(C)Cc1ccc(CN2CC[C@@H](N)C2)cc1 registered its composite z-score at -0.847
